Assay: Acid dissociation constant (pKa) of amine compound (potentiometric titration)
Assay type: physicochemical
Conditions: in purified water, 25±2° C.
measured_property: pKa

smiles_code	result
NCCN	9.8
